The reported numbers originate from patent US20220339143A1.

TEST NAME: Single dose PK in healthy subjects (Cohorts 1, 2, S1 and S2), plasma
Type: in vivo, human
TEST CONDITIONS: human, plasma, intravenous, 134.4 mg; 3 hr; read-out: Plasma concentration, Q1
READOUT NAME: concentration at 3 h (ng/mL)
Give bare numbers, in ng/mL.

**Q:** Which concentration at 3 h is reported for this compound? `COC(=O)N1CCC[C@H](NS(C)(=O)=O)[C@@H]1CO[C@H]1CC[C@@H](c2ccccc2)CC1`
**A:** 260

====

TEST NAME: Single dose PK in healthy subjects (Cohorts 1, 2, S1 and S2), plasma
Type: in vivo, human
TEST CONDITIONS: human, plasma, intravenous, 180 mg; 1.5 hr; read-out: Plasma concentration, Q1
READOUT NAME: concentration at 1.5 hr (ng/mL)
Answers are plain numbers, in ng/mL.

**Q:** Which concentration at 1.5 hr is reported for this molecule? `COC(=O)N1CCC[C@H](NS(C)(=O)=O)[C@@H]1CO[C@H]1CC[C@@H](c2ccccc2)CC1`
**A:** 228

====

TEST NAME: Single dose PK in healthy subjects (Cohorts 1, 2, S1 and S2), plasma
Format: in vivo, human
TEST CONDITIONS: human, plasma, iv, 134.4 mg, 134.4 mg single IV infusion, healthy subjects; read-out: Vz Mean
READOUT NAME: Vd
Quick note: unit goes after the number.

**Q:** Which Vd is reported for this molecule? `COC(=O)N1CCC[C@H](NS(C)(=O)=O)[C@@H]1CO[C@H]1CC[C@@H](c2ccccc2)CC1`
**A:** 285 L

====

TEST NAME: Single dose PK in healthy subjects (Cohorts 1, 2, S1 and S2), plasma
Type: in vivo, human
TEST CONDITIONS: human, plasma, iv, 180 mg, 180 mg single IV infusion, healthy subjects; read-out: AUClast Geo Mean
READOUT NAME: AUC(0-t) (ng·h/mL)
One number for each entry, in ng·h/mL.

**Q:** Which AUC(0-t) is reported for this molecule? `COC(=O)N1CCC[C@H](NS(C)(=O)=O)[C@@H]1CO[C@H]1CC[C@@H](c2ccccc2)CC1`
**A:** 2990

====

TEST NAME: Single dose PK in healthy subjects (Cohorts 1, 2, S1 and S2), plasma
Format: in vivo, human
TEST CONDITIONS: human, plasma, iv, 180 mg, 180 mg single IV infusion, healthy subjects; read-out: Ceoi Mean
Excerpt: […]
READOUT NAME: concentration at 9 h (ng/mL)
Answers are plain numbers, in ng/mL.

**Q:** Which concentration at 9 h is reported for this compound? `COC(=O)N1CCC[C@H](NS(C)(=O)=O)[C@@H]1CO[C@H]1CC[C@@H](c2ccccc2)CC1`
**A:** 325

====

TEST NAME: Single dose PK in patients with narcolepsy (Cohorts 5, 6 and 7), plasma
Assay type: in vivo, human
TEST CONDITIONS: human, plasma, intravenous, 44.8 mg, Cmpd A 44.8 mg; Median; Cohort 5, 6, 7
READOUT NAME: AUC(0-t) (ng·h/mL)
Give bare numbers, in ng·h/mL.

**Q:** Which AUC(0-t) is reported for this compound? COC(=O)N1CCC[C@H](NS(C)(=O)=O)[C@@H]1CO[C@H]1CC[C@@H](c2ccccc2)CC1 [Compound A]
**A:** 919
